Data credit: ChEMBL document CHEMBL1799910

Property: Ratio EC50; scope: individual compounds
System: Plasmodium falciparum
Protocol: Resistance index, ratio of EC50 for chloroquine, mefloquine, pyrimethamine and atovaquone-resistant Plasmodium falciparum TM90-C2B to EC50 for chloroquine and pyrimethamine-resistant Plasmodium falciparum W2
Type: functional

Observe how each entry below is paired with its result.
- Smiles: "COc1cccc2[nH]c3c(c(=O)c12)CCC(C)(C)C3"
  Assay system: "Plasmodium falciparum"
  Result: "<0.42"
- Smiles: "COc1cc(OC)c2[nH]c3c(c(=O)c2c1)CCCC3"
  Assay system: "Plasmodium falciparum"
  Result: "<0.83"
- Smiles: "O=c1c2c([nH]c3cc(C(F)(F)F)ccc13)CCCCCC2"
  Assay system: "Plasmodium falciparum"
  Result: 0.89
- Smiles: "O=c1c2c([nH]c3cc(C(F)(F)F)ccc13)CCCC2"
  Assay system: "Plasmodium falciparum"
  Result: 0.16
- Smiles: "O=c1c2c([nH]c3ccc(-c4ccc(C(F)(F)F)cc4)cc13)CCCC2"
  Assay system: "Plasmodium falciparum"
  Result: 0.77

## Task Please indicate Ratio EC50 recorded for `O=c1c2c([nH]c3c(F)c(F)ccc13)CCCC2`
## Result 0.36

## Task Please indicate Ratio EC50 recorded for `O=c1c2c([nH]c3cc(C(F)(F)F)ccc13)CCCCC2`
## Result >0.88
